molecular target: T1, monoclonal antibody (mAb) 5D5; assay: competitive ELISA, competitor against rCSP for binding to mAb 5D5; row 0.001 µg/ml
T1 construct: Murine IgG1/kappa hybridoma antibody; also called 5D5 mAb; MRA-1242
T1 sequence (VH, as listed by the source, chain 1 of 2): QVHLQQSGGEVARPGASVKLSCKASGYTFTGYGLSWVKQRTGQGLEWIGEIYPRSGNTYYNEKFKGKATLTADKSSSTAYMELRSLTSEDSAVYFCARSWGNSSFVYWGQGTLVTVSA
T1 sequence (VL, as listed by the source, chain 2 of 2): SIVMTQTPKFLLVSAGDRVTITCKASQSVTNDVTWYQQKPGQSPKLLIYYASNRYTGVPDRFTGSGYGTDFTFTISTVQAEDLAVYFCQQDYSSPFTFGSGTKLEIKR
assay metric: ELISA signal (name and unit not given)
No unit in the answer, only the number.

- binder: "NEDNEKLRK [peptide B]"
  assay metric: "ELISA signal (name and unit not given)"
  val: 1.03
- binder: "LRKPKHKKLKQ [peptide D]"
  assay metric: "ELISA signal (name and unit not given)"
  val: 0.989

[ask] Bench note: what ELISA signal (name and unit not given) did PKHKKLKQPAD [peptide E] show?
[reply] 0.925

[ask] Which ELISA signal (name and unit not given) value is on record for SLGENDDGNNEDNEK [peptide 8 (amino acids 71-85 of CSP)] ?
[reply] 0.952
